- Test system: TK-10 renal
- assay.text: NCI tumour cell line growth inhibition, 48 h
endpoint: GI50

>>> result("CC1OC2CC(=O)OC2C2=C1C(=O)c1c(O)c3c(c(O)c1C2=O)C1CC(O)C3(O)C(C)O1 (stereo unspecified)")
"302 nM"
>>> result("CCOc1ccc(NCc2cc(OC)c(OC)c(OC)c2)cc1")
"> 100000 nM"
>>> result("Clc1nc(Cl)c2ncn(Cc3ccc(COc4cccc(OCc5ccc(Cn6cnc7c(Cl)nc(Cl)nc76)cc5)c4)cc3)c2n1")
"27000 nM"
>>> result("C=C1C(=O)O[C@H]2[C@H]1CC/C(COC(=O)N1CCC[C@H]1C(=O)Nc1ccc(OC)c(C(N)=O)c1O)=C\\CC[C@@]1(C)O[C@@H]21")
"1920 nM"
>>> result("COc1cc(Nc2nc(N[C@H]3CCCC[C@@H]3N)nc3cc[nH]c(=O)c23)cc(OC)c1")
"1840 nM"

Look up GI50 for this molecule: CC(=O)OCC1OC(n2ccc(=O)[nH]c2=O)C(OC(C)=O)C1OC(C)=O (stereo unspecified)
> 100000 nM

====

Quick list: GI50 per entry.
- System: A549 NSCLC
- assay.text: NCI tumour cell line growth inhibition, 48 h

>>> result("CCN(Cc1ccccc1OC)c1ccc(CO)c(Cl)c1")
"4.26 µM"
>>> result("Fc1cccc(COc2ccc(Nc3ncnc4cc(-c5ccc[nH]5)sc34)cc2Cl)c1")
"0.789 µM"
>>> result("C[C@H]1[C@H](C)CC[C@]2(C(=O)O)CC[C@]3(C)C(=CC[C@@H]4[C@@]5(C)C/C(=C/c6cccnc6)[C@H](O)C(C)(C)[C@@H]5CC[C@]43C)[C@H]12")
"5.27 µM"
>>> result("CN(C)C(=S)N=Nc1c(O)[nH]c2ccccc12")
"0.465 µM"

Form field: reported GI50 of `Clc1nc(Cl)c2ncn(Cc3ccc(COc4cccc(OCc5ccc(Cn6cnc7c(Cl)nc(Cl)nc76)cc5)c4)cc3)c2n1`
> 100 µM

Here is the next compound: `C#CC[C@@H]1C[C@]2(C)[C@H]3CC=C4[C@H]5CC(C)(C)CC[C@]5(C(=O)NCCCCN)CC[C@@]4(C)[C@]3(C)CC[C@H]2C(C)(C)[C@H]1OC(C)=O`
1.66 µM

====

# maps each entry to its TGI
- Test system: NCI-H23 lung
- assay.text: NCI tumour cell line growth inhibition, 48 h

Some entries whose results are on file:
>>> result("CC(C)NC(=O)OCCS(=O)c1c(Cl)c(Cl)nn1C (stereo unspecified)")
"> 100 µM"
>>> result("CCCCn1cnc2c(SC)ncnc21")
"> 100 µM"
>>> result("COc1ccc(CC2NC(=O)/C=C/CC(C(C)C3OC3c3ccccc3)OC(=O)C(CC(C)C)OC(=O)C(C)CNC2=O)cc1Cl (stereo unspecified)")
"> 0.1 µM"
>>> result("CCN(CC)C(=S)SS(=O)(=O)c1ccc([N+](=O)[O-])cc1")
"> 100 µM"
>>> result("Nc1nc(Cl)cc(Nc2cc(Cl)cc(Cl)c2)n1")
"48.6 µM"

Consider the compound shown here: `CN(C)c1ccc2cc(-c3ccccc3F)c(N)nc2c1` What is its recorded TGI?
15.7 µM

Same read-out for `Cc1cccc(C(C)C)c1NC(=O)C(=O)CC(=O)c1c(C)n([O-])c2ccccc2[n+]1=O` ?
51.3 µM

Moving on to `CC(C)CCn1c(=O)c2c(=O)[nH][nH]c2c2ccccc21`
> 100 µM

Moving on to the next compound: `COc1ccc(NC(=O)c2cc(OC)c(OC)c(OC)c2)cc1`
> 91.9 µM

Next compound: `COc1ccccc1N1CCN(Cn2c(=O)oc3cccnc32)CC1`
> 100 µM

What do you have for `O=c1cc(-c2ccccc2)c2cc3c(=O)ccoc3cc2o1` ?
> 100 µM
